- tested_on: horseradish peroxidase (HRP) tagged delF508-CFTR (Homo sapiens, UniProt P13569, DEL508-508)
- Construct: expressed in transfected cells
- Sequence (P13569 with tags, fused parts or gaps DEL508-508): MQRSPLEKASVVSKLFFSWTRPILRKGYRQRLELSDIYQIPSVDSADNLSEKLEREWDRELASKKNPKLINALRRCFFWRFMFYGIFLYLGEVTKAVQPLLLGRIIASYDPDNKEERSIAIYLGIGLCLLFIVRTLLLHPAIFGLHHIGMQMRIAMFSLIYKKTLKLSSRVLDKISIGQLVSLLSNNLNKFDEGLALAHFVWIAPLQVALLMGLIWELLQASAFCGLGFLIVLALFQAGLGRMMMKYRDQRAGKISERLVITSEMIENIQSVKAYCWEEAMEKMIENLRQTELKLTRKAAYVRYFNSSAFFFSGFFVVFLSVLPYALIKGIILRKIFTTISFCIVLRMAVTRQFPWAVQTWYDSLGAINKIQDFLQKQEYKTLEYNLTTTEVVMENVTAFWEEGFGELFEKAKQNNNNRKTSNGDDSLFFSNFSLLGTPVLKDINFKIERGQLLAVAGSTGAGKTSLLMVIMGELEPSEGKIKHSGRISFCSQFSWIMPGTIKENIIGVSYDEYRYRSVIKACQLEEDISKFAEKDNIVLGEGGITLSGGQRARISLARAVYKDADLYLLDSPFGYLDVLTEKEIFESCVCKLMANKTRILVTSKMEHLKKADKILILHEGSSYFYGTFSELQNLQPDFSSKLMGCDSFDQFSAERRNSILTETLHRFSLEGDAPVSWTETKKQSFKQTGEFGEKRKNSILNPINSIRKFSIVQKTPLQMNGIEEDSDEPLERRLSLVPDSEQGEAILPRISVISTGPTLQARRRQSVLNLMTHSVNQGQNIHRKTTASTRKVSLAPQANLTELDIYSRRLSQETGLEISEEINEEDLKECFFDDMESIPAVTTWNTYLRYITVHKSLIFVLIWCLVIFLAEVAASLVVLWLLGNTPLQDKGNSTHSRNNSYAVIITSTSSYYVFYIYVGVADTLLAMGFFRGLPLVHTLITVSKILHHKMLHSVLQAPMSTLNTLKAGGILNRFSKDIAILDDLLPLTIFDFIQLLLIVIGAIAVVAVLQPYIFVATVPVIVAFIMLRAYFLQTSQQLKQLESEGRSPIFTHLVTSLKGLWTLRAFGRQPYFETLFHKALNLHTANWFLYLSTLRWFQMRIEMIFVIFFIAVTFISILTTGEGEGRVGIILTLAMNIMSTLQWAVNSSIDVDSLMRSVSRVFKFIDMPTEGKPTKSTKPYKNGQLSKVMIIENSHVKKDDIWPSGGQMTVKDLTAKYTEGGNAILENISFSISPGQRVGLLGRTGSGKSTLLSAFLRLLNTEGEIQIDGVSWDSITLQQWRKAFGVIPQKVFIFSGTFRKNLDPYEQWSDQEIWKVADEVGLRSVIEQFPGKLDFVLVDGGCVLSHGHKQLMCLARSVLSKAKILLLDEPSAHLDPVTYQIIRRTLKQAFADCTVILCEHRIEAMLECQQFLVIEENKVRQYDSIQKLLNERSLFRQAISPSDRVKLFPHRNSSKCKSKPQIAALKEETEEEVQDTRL
- assay_name: Measurement of delF508-CFTR-HRP surface expression in CFBE41o- cells
- Type: cell-based
- measurement_setup: delF508-CFTR-HRP surface expression, CFBE41o- cells; read-out: DelF508-CFTR-HRP EC50
pEC50: −log10 of the molar value. Where a name gives a salt, the structure may show the parent alone.
measurement_name: pEC50

The cases that follow already have their pEC50 on record.
| compound | measurement_name | recorded_result |
| --- | --- | --- |
| O=C(O)[C@H]1CCCN(c2cccc(S(=O)(=O)Nc3ccc(C(F)(F)F)c(-c4ccccc4C4CCC4)n3)n2)C1 | pEC50 | 6.03 |
| Cc1c(F)cccc1-c1nc(NS(=O)(=O)c2cccc(N3CC(C)(O)C3)n2)ccc1C(F)(F)F | pEC50 | 5.68 |

[I] Cc1cccc(C)c1-c1nc(NS(=O)(=O)c2cccc(N3CCNCC3=O)n2)ccc1Cl [Example 192, hydrochloride]
[II] Cc1cccc(C)c1-c1nc(NS(=O)(=O)c2cccc(N)n2)ccc1Br
Select the item whose pEC50 value is smaller, choosing between I and II . Return value: the label identifying the chosen record.
I

----------
- tested_on: horseradish peroxidase (HRP) tagged delF508-CFTR (Homo sapiens, UniProt P13569, DEL508-508)
- Construct: expressed in transfected cells
- assay_name: Measurement of delF508-CFTR-HRP surface expression in CFBE41o- cells;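 for DelF508-CFTR-HRP Amax %: percent efficacy relative to reference corrector lumacaftor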
- Type: cell-based
- measurement_setup: delF508-CFTR-HRP surface expression, CFBE41o- cells; read-out: DelF508-CFTR-HRP Amax %
Counter-ions that a name gives are not always drawn.
measurement_name: Emax (%)

The cases that follow already have their Emax on record.
| molecule | units | recorded_result |
| --- | --- | --- |
| Cc1ccc(C(F)(F)F)cc1-c1nc(NS(=O)(=O)c2cccc(N)n2)ccc1Cl [Example 51] | % | 332 |
| COC(=O)C1(N)CCN(c2cccc(S(=O)(=O)Nc3ccc(Cl)c(-c4c(C)cccc4C)n3)n2)CC1 [Example 270] | % | 561 |
| Cc1cc(F)ccc1-c1nc(NS(=O)(=O)c2ccc(N)nc2)ccc1Cl [Example 71] | % | 196 |
| Cc1ccccc1-c1nc(NS(=O)(=O)c2ccc(N)nc2)ccc1Cl [Example 40] | % | 373 |
| Nc1cccc(S(=O)(=O)Nc2ccc(C(F)(F)F)c(-c3ccc(F)cc3Cl)n2)n1 [Example 41] | % | 368 |
| CCOC(=O)C1(C)CCN(c2cccc(S(=O)(=O)Nc3ccc(Cl)c(-c4cccc(F)c4C)n3)n2)CC1 [Example 252] | % | 602 |
| Cc1ccccc1-c1nc(NS(=O)(=O)c2cccc(N3CCN[C@H](C)C3)n2)ccc1C(F)(F)F [Example 167, Hydrochloride] | % | 317 |
| Cc1ccccc1-c1nc(NS(=O)(=O)c2cccc(N3CCN(CC(N)=O)CC3)n2)ccc1C(F)(F)F [Example 183] | % | 191 |
| Cc1ccc(F)cc1-c1nc(NS(=O)(=O)c2cccc(N3CC4CCC3CN4)n2)ccc1C(F)(F)F (stereo not drawn) [Example 201, Hydrochloride] | % | 570 |
| CC1(O)CN(c2cccc(S(=O)(=O)Nc3ccc(C(F)(F)F)c(-c4ccccc4Cl)n3)n2)C1 [Example 221] | % | 552 |

[P] Nc1cc(S(=O)(=O)Nc2ccc(Cl)c(-c3ccccc3C(F)(F)F)n2)ccn1 [Example 61]
[Q] Cc1c(F)cccc1-c1nc(NS(=O)(=O)c2cccc(N)n2)ccc1C(F)(F)F [Example 7]
[R] CN[C@H]1CCN(c2cccc(S(=O)(=O)Nc3ccc(C(F)(F)F)c(-c4ccccc4C)n3)n2)C1 [Example 122, Hydrochloride]
[S] Cc1cccc(C)c1-c1nc(NS(=O)(=O)c2cccc(N)n2)c(F)cc1Cl [Example 95]
[T] Cc1ccccc1-c1nc(NS(=O)(=O)c2cccc(N[C@H]3CCNC3)n2)ccc1C(F)(F)F [Example 124, Hydrochloride]
List the 5 entries from lowest Emax to highest Emax value. A ranking is expressed here by listing the labels in the requested order.
S, T, P, R, Q
